Literature IC50 values, system: Plasminogen (Homo sapiens, UniProt P00747).
readout: IC50 (µM)

[I] N=C(N)Nc1ccc2c(c1)C(C(=O)Oc1cccc3c1CCCC3)CCC2 (stereo not shown)
[II] N=C(N)c1ccc2ccc(CN3c4ccc(OC5CCN(C(=N)N)CC5)cc4C=CS3(=O)=O)cc2c1
[III] CC(=N)N1CCC(Oc2ccc3[nH]c(=O)n(Cc4ccc5ccc(C(=N)N)cc5c4)c3c2)CC1
[IV] CC(=N)N1CCC(Oc2ccc3c(c2)C(CC(=O)O)C(=O)N3Cc2ccc3ccc(C(=N)N)cc3c2)CC1 (stereo not shown)
Asked: Order by IC50, smallest first, the items presented above. Use the labels to give the requested order.
Given back: II, IV, III, I
(II: 1.14 µM, IV: 2.13 µM, III: 8.94 µM, I: 1000 µM)

* * *

Literature pIC50 values, system: Plasminogen (Homo sapiens).
pIC50: −log10 of the molar value.
readout: pIC50

Answered examples (3):
[[record]]
molecule = "COc1ccc(C=CC(=O)Oc2ccc3cc(C(=N)N)ccc3c2)cc1OC"
target = "Plasminogen (Homo sapiens)"
readout = "pIC50"
reported_measurement = 6.22

[[record]]
molecule = "Cc1c(-c2ccc(C[C@H](NC(=O)[C@H]3CC[C@H](CN)CC3)C(=O)Nc3ccc4[nH]c(=O)[nH]c4c3)cc2)cc2nc(C3CCC3)[nH]c2c1F"
target = "Plasminogen (Homo sapiens)"
readout = "pIC50"
reported_measurement = 9.35

[[record]]
molecule = "Cc1ccc(C(C)C)c(OC(=O)[C@H]2CC[C@H](CNC(=N)N)CC2)c1"
target = "Plasminogen (Homo sapiens)"
readout = "pIC50"
reported_measurement = 3.40


[A] CCCOC(=O)c1ccc(OC(=O)C2CCCc3ccc(NC(=N)N)cc32)cc1 (stereo not shown)
[B] CC(C)CCC(=O)NC(Cc1nnn[nH]1)C(=O)N1CCC[C@H]1C(=O)N[C@H](C=O)CCCNC(=N)N (stereo partly shown)
Asked: Could you tell me which of A and B has the lower pIC50 reading? Select an item and report its label.
Given back: A
(A: 3.32, B: 6.30)

* * *

Literature pIC50 values, system: Plasminogen (Homo sapiens, UniProt P00747).
pIC50: −log10 of the molar value.
readout: pIC50

Answered examples (2):
[[record]]
smiles_entry = "N=C(N)c1ccc2cc(OC(=O)c3ccc(CN)o3)ccc2c1"
reported_measurement = 6.40

[[record]]
smiles_entry = "CC(=N)N1CCC(Oc2ccc3c(c2)CCS(=O)(=O)N3Cc2ccc3ccc(C(=N)N)cc3c2)CC1"
reported_measurement = 5.63


[P] CN(C)C(=O)Cc1ccc(OC(=O)c2ccc(NC(=N)N)cc2)cc1
[Q] N=C(N)c1cc2ccc(OC(=O)c3cccs3)cc2o1
Asked: Could you tell me which of P and Q has the lower pIC50 reading? Select an item and report its label.
Given back: Q

* * *

Literature IC50 values, system: Plasminogen (Homo sapiens).

Answered examples (8):
[[record]]
compound = "CC/C=C/C(=O)Oc1ccc2cc(C(=N)N)sc2c1"
target = "Plasminogen (Homo sapiens)"
readout = "IC50"
reported_measurement = "6 nM"

[[record]]
compound = "CCC(C)[C@@H](N)C(=O)N[C@@H](Cc1cccc(C(F)(F)F)c1)C(=O)NCc1ccc(N)nc1 (stereo partly shown)"
target = "Plasminogen (Homo sapiens)"
readout = "IC50"
reported_measurement = "> 10000 nM"

[[record]]
compound = "Nc1ccc(CNC(=O)[C@H](Cc2cccc3ccccc23)NC(=O)c2ccc[nH]2)cn1"
target = "Plasminogen (Homo sapiens)"
readout = "IC50"
reported_measurement = "> 10000 nM"

[[record]]
compound = "COCc1nn(Cc2ccc(Cn3ccccc3=O)cc2)cc1C(=O)NCc1cc(OC)ccc1C#N"
target = "Plasminogen (Homo sapiens)"
readout = "IC50"
reported_measurement = "> 40000 nM"

[[record]]
compound = "COCc1nn(Cc2ccc(Cn3cc(F)ccc3=O)cc2)cc1C(=O)NCc1nccc(OC)c1F"
target = "Plasminogen (Homo sapiens)"
readout = "IC50"
reported_measurement = "> 40000 nM"

[[record]]
compound = "N=C(N)N1CCC(CNC(=O)CN2CCCC[C@H](NS(=O)(=O)c3ccccc3)C2=O)CC1"
target = "Plasminogen (Homo sapiens)"
readout = "IC50"
reported_measurement = "≥ 2500 nM"

[[record]]
compound = "C[C@H](NC(=O)[C@@H](CO)NS(=O)(=O)Cc1ccccc1)C(=O)NCc1ccc(NC(=N)N)s1"
target = "Plasminogen (Homo sapiens)"
readout = "IC50"
reported_measurement = "> 2500 nM"

[[record]]
compound = "N/C(=N\\O)c1ccc(CNC(=O)[C@@H]2Cc3cccc4c3N2C(=O)[C@@H](NS(=O)(=O)c2ccc3c(c2)CCO3)CC4)cc1"
target = "Plasminogen (Homo sapiens)"
readout = "IC50"
reported_measurement = "≥ 2500 nM"


Asked: Find the recorded IC50 belonging to `C[C@H](NC(=O)[C@@H](CO)NC(=O)CCC1CCCCC1)C(=O)N[C@H](C=O)CCCNC(=N)N` and report it.
Given back: > 2500 nM

Asked: Now consider `CCCCS(=O)(=O)N[C@H](CO)C(=O)N[C@@H](C)C(=O)NCCCCNC(=N)N` and answer again.
Given back: > 2500 nM

Asked: Now consider `N=C(N)c1ccc(CNC(=O)CN2CCCC[C@H](NS(=O)(=O)Cc3ccccc3)C2=O)cc1` and answer again.
Given back: ≥ 2500 nM

Asked: Now consider `CN1CCC[C@@H]1C(=O)N[C@@H](Cc1cccc2ccccc12)C(=O)NCc1ccc(N)nc1` and answer again.
Given back: > 10000 nM

Asked: Now consider `COc1ccc(F)c(CNC(=O)c2cn(Cc3ccc(Cn4ccccc4=O)cc3)nc2N)c1F` and answer again.
Given back: > 40000 nM

Asked: Now consider `N=C(N)c1ccc(CNC(=O)CN2CCCC[C@H](NS(=O)(=O)c3ccc4ccccc4c3)C2=O)cc1` and answer again.
Given back: ≥ 2500 nM

Asked: Now consider `COC(=O)c1cc(C(=N)N)ccc1OC(=O)c1ccccc1` and answer again.
Given back: 600 nM

Asked: Now consider `CN1CCC[C@@H]1C(=O)N[C@@H](Cc1cccc(C(F)(F)F)c1)C(=O)NCc1ccc(N)nc1` and answer again.
Given back: > 10000 nM

Asked: Now consider `N=C(N)Nc1ccc(C(=O)Oc2ccc(S(N)(=O)=O)cc2)cc1` and answer again.
Given back: 4.8 nM

Asked: Now consider `CC(=N)N1CCC(Oc2ccc3c(c2)/C(=C/c2ccc(F)cc2)C(=O)N3Cc2ccc3ccc(C(=N)N)cc3c2)CC1` and answer again.
Given back: 407 nM

Asked: Now consider `CC(C)COC(=O)N[C@H](CO)C(=O)N[C@@H](C)C(=O)N[C@H](C=O)CCCNC(=N)N` and answer again.
Given back: 250 to 2500 nM

Asked: Now consider `N=C(N)c1nc2ccc(OC(=O)c3ccccc3)cc2s1` and answer again.
Given back: 37 nM

Asked: Now consider `Cc1cccc(C[C@H](NC(=O)c2[nH]c(C)cc2C)C(=O)NCc2ccc(N)nc2)c1` and answer again.
Given back: > 10000 nM

Asked: Now consider `N=C(N)c1ccc(CNC(=O)[C@@H]2CCCN2C(=O)[C@@H](CO)NS(=O)(=O)Cc2ccccc2)cc1` and answer again.
Given back: 250 to 2500 nM

Asked: Now consider CCC(C)[C@@H](N)C(=O)N[C@@H](Cc1cccc2ccccc12)C(=O)NCc1ccc(N)nc1 (stereo partly shown) and answer again.
Given back: > 10000 nM

Asked: Now consider `CN[C@H](Cc1ccccc1)C(=O)N[C@@H](Cc1ccc(Cl)c(Cl)c1)C(=O)NCc1ccc(N)nc1` and answer again.
Given back: > 10000 nM

Asked: Now consider `C[C@H](NC(=O)[C@@H](CO)NS(=O)(=O)Cc1ccccc1)C(=O)NCc1ccc(C(=N)N)cc1` and answer again.
Given back: > 2500 nM
